Taken from PubChem BioAssay.

- method: stimulators of nuclear beta-catenin in C2C12, primary screen, imaging, WNT3A-conditioned medium, mouse C2C12, NPC library (AID 1117326)
- condition.label: at 10 µM, stronger effect = higher value
Could you please report measured nuclear beta-catenin stimulation for the items listed next?
One number for each entry, in %.

INSERT INTO measurements (compound, reading_unit, value) VALUES
  ('O=C1Nc2ccccc2C1(c1ccc(O)cc1)c1ccc(O)cc1', '%', -0.4),
  ('CC1CC(=O)NN=C1c1ccc(NCC(C)(C)NCC(O)COc2cc(Cl)ccc2C#N)cc1 (configuration not stated)', '%', -1.8);

Give me nuclear beta-catenin stimulation for each of these compounds, listed below.
1. CC1(C)O[C@@H]2C[C@H]3[C@@H]4CCC5=CC(=O)C=C[C@]5(C)[C@@H]4[C@@H](O)C[C@]3(C)[C@]2(C(=O)CO)O1
2. Cc1cn([C@H]2C[C@H](F)[C@@H](CO)O2)c(=O)[nH]c1=O
3. Oc1cccc(O)c1O
4. COC(=O)Nc1nc2ccc(C(=O)C3CC3)cc2[nH]1
5. O=c1[nH]c2ccccc2c(=O)n1CCCl

Result:
[0.6, 9.9, 5, 41.8, 3.3]

Give me nuclear beta-catenin stimulation for each of these compounds, listed below.
1. O=C(O)Cn1c(=O)n(Cc2ccc(Br)cc2F)c(=O)c2ccc(Cl)cc21
2. CC(C)[N+](C)(CCOC(=O)C1c2ccccc2Oc2ccccc21)C(C)C
3. CCCCCCn1c(=O)c2c(ncn2C)n(C)c1=O
4. c1ccc2[nH]c(-c3cscn3)nc2c1
5. CCCCCCCCCCCC(=O)OCC(O)CO (configuration not stated)
6. CCN1CCN(C(=O)N[C@@H](C(=O)N[C@@H]2C(=O)N3[C@@H]2SC(C)(C)[C@H]3C(=O)O)c2ccccc2)C(=O)C1=O
7. Cc1cc(C)c(NC(=O)CN(CC(=O)O)CC(=O)O)c(C)c1Br
8. NC(CSCC(=O)O)C(=O)O (configuration not stated)

Result:
1. 1.1
2. 1.3
3. -0.5
4. 1.5
5. -1.2
6. 0.2
7. 1.9
8. 0.1

###

- method: stimulators of nuclear beta-catenin in C2C12, primary screen, imaging, WNT3A-conditioned medium, mouse C2C12, NPC library (AID 1117326)
- condition.label: stimulation, at 2 µM, stronger effect = higher value
Could you please report measured nuclear beta-catenin stimulation for the items listed next?
Give bare numbers, in %.

Worked cases, nuclear beta-catenin stimulation given:
INSERT INTO results (molecule, value) VALUES
  ('Nc1c(I)cc(I)c(C(=O)N(CCC(=O)O)c2ccccc2)c1I', -0.2),
  ('CC(C)(C)NCC(O)c1cc(O)cc(O)c1 (configuration not stated)', 3.1),
  ('CC(C[N+](C)(C)C)OC(N)=O (configuration not stated)', -1.3),
  ('CC(C)NCC(O)c1cc(O)cc(O)c1 (configuration not stated)', 0.9),
  ('CC(C)NCCCC1(C(N)=O)c2ccccc2-c2ccccc21', 0.2),
  ('NC(=O)c1cnccn1', -0.7);

From here, focus on the item given below.
Problem: Identify the reported nuclear beta-catenin stimulation for the following entry. O=C(/C=C/c1ccccc1)NCCO
Result: 1.4

###

- method: ovarian cancer cell viability with rucaparib, profiling panel, oncology-focused library, rucaparib conditional (AID 1508598)
- condition.label: patient-derived ovarian cancer cells, CellTiter-Glo viability, 144 h; at 0.313 µM; OCI-P5x cells; without rucaparib
Active and inactive are the calls of the source.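 Rule for the calls: active = normalized viability below 100% at a tested concentration; inactive = the rest.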
Write down the outcome that applies. Available outcomes: T for active, F for inactive

INSERT INTO results (compound, discrete_label) VALUES
  ('CCCCCCNC(=O)n1cc(F)c(=O)[nH]c1=O', 'F');

Problem: Any idea what this test logged for O=c1[nH]cnc2[nH]ncc12 ?
Result: F

Problem: Any idea what this test logged for CN(CCOc1ccc(CC2SC(=O)NC2=O)cc1)c1ccccn1 (stereo not drawn) ?
Result: F
